Kindly supply the reported pIC50 values for the records listed here.
# system: DNA gyrase subunit B (Staphylococcus aureus)
# Sequence (P0A0K8 whole entry): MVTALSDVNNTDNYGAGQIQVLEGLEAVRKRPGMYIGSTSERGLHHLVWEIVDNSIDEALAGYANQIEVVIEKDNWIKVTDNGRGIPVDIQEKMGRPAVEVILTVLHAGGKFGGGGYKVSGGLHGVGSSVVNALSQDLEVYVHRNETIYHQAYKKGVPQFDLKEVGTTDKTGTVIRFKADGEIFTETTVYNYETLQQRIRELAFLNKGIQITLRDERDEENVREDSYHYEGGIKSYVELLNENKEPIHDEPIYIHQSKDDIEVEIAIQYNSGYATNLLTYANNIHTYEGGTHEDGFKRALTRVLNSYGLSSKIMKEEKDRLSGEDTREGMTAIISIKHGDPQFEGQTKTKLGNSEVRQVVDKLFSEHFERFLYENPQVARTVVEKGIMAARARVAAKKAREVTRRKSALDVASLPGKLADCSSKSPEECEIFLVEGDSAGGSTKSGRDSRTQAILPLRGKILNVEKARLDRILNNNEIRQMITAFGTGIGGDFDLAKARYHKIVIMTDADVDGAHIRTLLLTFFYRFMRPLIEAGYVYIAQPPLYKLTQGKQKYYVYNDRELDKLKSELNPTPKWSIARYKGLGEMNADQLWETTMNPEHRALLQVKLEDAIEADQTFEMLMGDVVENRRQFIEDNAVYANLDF
# test: Inhibition of ATPase activity of Staphylococcus aureus GyrB
pIC50: −log10 of the molar value.

Item: COCCO[C@H]1CN(c2ncc(C(=O)O)s2)CC[C@H]1NC(=O)c1[nH]c(C)c(Cl)c1Cl (racemic) | pIC50: > 8.00

Item: COc1cc(OC)nc(-c2nc(N3CC[C@@H](NC(=O)c4[nH]c(C)c(Cl)c4Cl)[C@@H](OC)C3)sc2C(=O)O)n1 | pIC50: > 8.00

Item: CO[C@H]1CN(c2nc(-c3ccccn3)c(C(=O)O)s2)CC[C@H]1NC(=O)c1[nH]c(C)c(Cl)c1Cl | pIC50: > 8.01

Item: CO[C@H]1CN(c2nc(CN3CCOCC3)c(C(=O)O)s2)CC[C@H]1NC(=O)c1[nH]c(C)c(Cl)c1Cl (racemic) | pIC50: > 8.00

Item: Cc1[nH]c(C(=O)N[C@@H]2CCN(c3ncc(C(=O)O)s3)CC23OCC2(CC2)CO3)c(Cl)c1Cl | pIC50: > 8.00

Item: Cc1[nH]c(C(=O)N[C@@H]2CCN(c3ncc(C(=O)O)s3)C[C@@H]2C)c(Cl)c1Cl (racemic) | pIC50: 7.85

Item: CO[C@H]1CN(c2nc(C(C)=O)c(C(=O)O)s2)CC[C@H]1NC(=O)c1[nH]c(C)c(Cl)c1Cl | pIC50: > 8.00

Item: CO[C@H]1CO[C@]2(CN(c3ncc(C(=O)O)s3)CC[C@H]2NC(=O)c2[nH]c(C)c(Cl)c2Cl)OC1 (relative stereo) | pIC50: > 8.00

Item: CO[C@H]1CN(c2nc(C(=O)O)c(C(N)=O)s2)CC[C@H]1NC(=O)c1[nH]c(C)c(Cl)c1Cl (racemic) | pIC50: > 8.00

Item: CO[C@H]1CN(c2nc(C(=O)NC3COC(C)(C)OC3)c(C(=O)O)s2)CC[C@H]1NC(=O)c1[nH]c(C)c(Cl)c1Cl | pIC50: > 8.00

Item: COCc1nc(N2CC[C@@H](NC(=O)c3[nH]c(C)c(Cl)c3Cl)[C@@H](OC)C2)sc1C(=O)O | pIC50: > 8.00

Item: Cc1[nH]c(C(=O)N[C@@H]2CCN(c3ncc(C(=O)O)s3)C[C@@H]2Cl)c(Cl)c1Cl (racemic) | pIC50: > 8.00

Item: CO[C@H]1CN(c2nc(-c3cnccn3)c(C(=O)O)s2)CC[C@H]1NC(=O)c1[nH]c(C)c(Cl)c1Cl | pIC50: > 8.00

Item: Cc1[nH]c(C(=O)NC2CCN(c3ncc(C(=O)O)s3)CC2)c(Cl)c1Cl | pIC50: 7.21

Item: CO[C@H]1CO[C@@]2(CN(c3ncc(C(=O)O)s3)CC[C@H]2NC(=O)c2[nH]c(C)c(Cl)c2Cl)OC1 (relative stereo) | pIC50: > 8.00

Item: CO[C@H]1CN(c2nc(C)c(C(=O)O)s2)CC[C@H]1NC(=O)c1[nH]c(C)c(Cl)c1Cl | pIC50: > 8.00

Item: CO[C@H]1CN(c2nc3cccc(C(=O)O)c3s2)CC[C@H]1NC(=O)c1[nH]c(C)c(Cl)c1Cl | pIC50: > 8.00

Item: CO[C@@H]1CN(c2ncc(C(=O)O)s2)CC[C@H]1NC(=O)c1[nH]c(C)c(Cl)c1Cl | pIC50: 6.96

Item: CO[C@H]1CN(c2nc(C(=O)NCC3(C)OCCO3)c(C(=O)O)s2)CC[C@H]1NC(=O)c1[nH]c(C)c(Cl)c1Cl | pIC50: > 8.00

Item: CO[C@H]1CN(c2nc(-c3ncc[nH]3)c(C(=O)O)s2)CC[C@H]1NC(=O)c1[nH]c(C)c(Cl)c1Cl | pIC50: > 8.00

Item: COC[C@H](C)NC(=O)c1nc(N2CC[C@@H](NC(=O)c3[nH]c(C)c(Cl)c3Cl)[C@@H](OC)C2)sc1C(=O)O | pIC50: > 8.00

Item: CO[C@H]1CN(c2nc(C(F)F)c(C(=O)O)s2)CC[C@H]1NC(=O)c1[nH]c(C)c(Cl)c1Cl | pIC50: > 8.00

Item: CO[C@H]1CN(c2nc(-c3nc(C)no3)c(C(=O)O)s2)CC[C@H]1NC(=O)c1[nH]c(C)c(Cl)c1Cl | pIC50: > 8.00

Item: CO[C@H]1CN(c2nc(-c3ncccn3)c(C(=O)O)s2)CC[C@H]1NC(=O)c1[nH]c(C)c(Cl)c1Cl | pIC50: > 8.00

Item: CO[C@H]1CN(c2nc(C(N)=O)c(C(=O)O)s2)CC[C@H]1NC(=O)c1[nH]c(C)c(Cl)c1Cl | pIC50: > 8.00

Item: Cc1[nH]c(C(=O)N[C@@H]2CCN(c3ncc(C(=O)O)s3)CC23OCCCO3)c(Cl)c1Cl | pIC50: > 8.00
